The measurements presented in this section are drawn from patent US20180185504A1.

Biological target: T1, human prolactin receptor (PRLR) (human, UniProt P16471 25-622)
T1 sequence: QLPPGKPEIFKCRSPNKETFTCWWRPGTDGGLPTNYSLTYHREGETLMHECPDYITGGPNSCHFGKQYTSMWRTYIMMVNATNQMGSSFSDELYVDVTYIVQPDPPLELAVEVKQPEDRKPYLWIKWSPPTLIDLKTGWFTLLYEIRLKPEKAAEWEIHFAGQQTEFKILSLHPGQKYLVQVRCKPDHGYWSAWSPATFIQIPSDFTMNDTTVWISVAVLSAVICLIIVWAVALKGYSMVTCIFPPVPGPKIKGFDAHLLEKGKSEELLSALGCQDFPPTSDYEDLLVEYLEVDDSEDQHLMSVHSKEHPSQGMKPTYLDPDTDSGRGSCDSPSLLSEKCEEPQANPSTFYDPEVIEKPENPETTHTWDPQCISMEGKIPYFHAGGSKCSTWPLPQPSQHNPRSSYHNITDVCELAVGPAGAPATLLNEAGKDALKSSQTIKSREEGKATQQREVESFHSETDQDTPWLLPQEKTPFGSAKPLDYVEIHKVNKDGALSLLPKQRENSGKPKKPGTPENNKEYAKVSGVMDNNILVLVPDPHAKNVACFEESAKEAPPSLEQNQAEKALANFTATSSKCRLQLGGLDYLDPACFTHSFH
Test: cell-based or functional assay
readoutName: % Kill, MCF7 cells

H1H6975N-DM1 (antibody, human IgG1, V domains shown, DM1 conjugated through SMCC linker; attachment residues not stated) VH: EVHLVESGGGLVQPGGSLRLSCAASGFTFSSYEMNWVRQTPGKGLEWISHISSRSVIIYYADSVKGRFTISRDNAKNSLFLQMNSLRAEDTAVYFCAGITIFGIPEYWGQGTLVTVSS VL: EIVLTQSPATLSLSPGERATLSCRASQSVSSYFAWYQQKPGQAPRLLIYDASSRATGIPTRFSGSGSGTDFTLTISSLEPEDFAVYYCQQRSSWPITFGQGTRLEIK; 73%
H1H6762P-DM1 (antibody, human IgG1, V domains shown, DM1 conjugated through SMCC linker; attachment residues not stated) VH: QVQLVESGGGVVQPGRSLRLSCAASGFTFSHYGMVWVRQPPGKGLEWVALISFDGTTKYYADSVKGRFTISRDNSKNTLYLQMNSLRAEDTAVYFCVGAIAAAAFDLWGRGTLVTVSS VL: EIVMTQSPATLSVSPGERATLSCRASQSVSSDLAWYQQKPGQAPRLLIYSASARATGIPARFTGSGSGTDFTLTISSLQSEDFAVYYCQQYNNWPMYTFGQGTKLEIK; 64%

Specify measured % Kill, MCF7 cells for H1H6803P-DM1 (antibody, human IgG1, V domains shown, DM1 conjugated through SMCC linker; attachment residues not stated) VH: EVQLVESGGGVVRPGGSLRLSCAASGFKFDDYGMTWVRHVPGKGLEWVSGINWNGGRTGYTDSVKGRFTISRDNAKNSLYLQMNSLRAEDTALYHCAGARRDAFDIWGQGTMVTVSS VL: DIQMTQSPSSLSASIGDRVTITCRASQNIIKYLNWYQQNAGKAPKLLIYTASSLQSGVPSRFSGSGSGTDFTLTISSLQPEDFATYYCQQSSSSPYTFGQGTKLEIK .
60%
